This section presents compounds with their documented CC50 at 18 h values.
assay_notes: Cytotoxicity against mouse RAW264.7 cells after 18 hrs by MTT assay
Assay type: cell-based

C=C1C(=O)OC[C@@H]1CCOC(=O)Nc1c(C)cccc1C(C)C; > 50 µM
C=C1C(=O)OC[C@@H]1CCOC(=O)Nc1ccc(CC)cc1; 7.58 µM
C=C1C(=O)OC[C@H]1CCOC(=O)Nc1ccc(CCCC)cc1; 15.9 µM
C=C1C(=O)OC[C@H]1CCOC(=O)Nc1ccc(I)cc1; 12.8 µM
C=C1C(=O)OC[C@H]1CCOC(=O)Nc1ccc(Cl)cc1; 9.14 µM
C=C1C(=O)OC[C@@H]1CCOC(=O)Nc1cc(C)cc(C)c1; 13.6 µM

Record C=C1C(=O)OC[C@@H]1CCOC(=O)Nc1ccc(C(=O)OCCCC)cc1 , field CC50 at 18 h: 12.7 µM

Record C=C1C(=O)OC[C@@H]1CCOC(=O)Nc1ccccc1 , field CC50 at 18 h: 22.3 µM

Record C=C1C(=O)OC[C@@H]1CCOC(=O)Nc1ccc(CCCC)cc1 , field CC50 at 18 h: 9.95 µM

Record C=C1C(=O)OC[C@@H]1CCOC(=O)Nc1cccc(Br)c1 , field CC50 at 18 h: 17.7 µM
